System: OVCAR-8 ovarian
Assay: NCI-60 one-dose screen, 48 h (100 = growth as untreated, 0 = no growth, -100 = all killed)
Details: 10 µM unless noted
This is part of a sample that, as a whole, favours compounds with a hit. Of some 83,000 tested, about 20% had one in any assay.
Threshold check on growth: at or above 50% gives 1 (yes), strictly below gives 0 (no).

Ask: Form field: growth at least 50%? Entry: `CCCCCCCCCCN1CCC(N2CCCCC2)CC1`
Reply: 0 (no)

Ask: Determine whether measured growth meets or exceeds 50% for `COc1cnc2c(c1)C(=O)c1c-2n(CCCN2CCOCC2)c(=O)c2cc(F)ccc12`
Reply: 0 (no)

Ask: Given the entry `Cc1cc2c(cc1C)[n+](Cc1ccc3ccccc3c1)cn2Cc1ccc2ccccc2c1` , answer whether its growth meets or surpasses 50%.
Reply: 0 (no)

Ask: Can `NS(=O)(=O)c1ccc(-n2ncc3c(SCc4ccccc4)ncnc32)cc1` be said to have growth at or above 50%?
Reply: 1 (yes)

----------
System: M14 melanoma
Experiment: NCI-60 one-dose screen, 48 h
Conditions: 10 µM unless noted
The panel holds about 83,000 compounds, 20% with a hit somewhere; the sample as a whole holds those more often. Activity calls are given as the source filed them. Rule for the calls: active = growth percent below 10; inactive = the rest.
Write down the outcome that applies. Available outcomes: true for active, false for inactive

Ask: Test call, this molecule: `CC(C)OP(=O)(OC(C)C)c1ncc(-c2ccc(C(F)(F)F)cc2)c(NC2CCCCCC2)n1`
Reply: true

Ask: What outcome does the record of this test show for `O=C(CNC(=O)c1cccc2ccccc12)Nc1ccccc1Oc1cccc(O)c1` ?
Reply: true

Ask: What did this assay record as the result for COc1ccc(C2CC(c3ccc(Nc4ccnc5cc(Cl)ccc45)cc3)=NN2C(C)=O)cc1 (stereo not given) ?
Reply: false

Ask: Recorded call for COc1ccc(C2=NN(C=O)C(c3cccc(Nc4ccnc5cc(Cl)ccc45)c3)C2)cc1 (stereo not given) ?
Reply: false

Ask: Tell me the recorded outcome of this test for `O=C(C(=O)N1CCOCC1)c1cn(CCCn2cc(C(=O)C(=O)N3CCOCC3)c3ccccc32)c2ccccc12` .
Reply: false

----------
Give growth for every item shown.
System: MCF7 breast
Assay: NCI-60 one-dose screen, 48 h (100 = growth as untreated, 0 = no growth, -100 = all killed)
Conditions: 10 µM unless noted
This is part of a sample that, as a whole, favours compounds with a hit. Of some 83,000 tested, about 20% had one in any assay. Activity calls are given as the source filed them. The calls were made as follows: active = growth percent below 10; inactive = the rest.

Ask: Please give the measured growth for this compound: `C[C@]12CC[C@H](O)CC1=CC[C@@H]1[C@@H]2CC[C@]2(C)C(c3cccnc3)=CC[C@@H]12`
Reply: 61.4% (inactive)

Ask: Suppose we examine the compound `COc1ccccc1-n1c(-c2ccc(O)cc2C)cn2c3c(=O)[nH]c(=O)n(C)c3nc12` ; what growth value has been reported?
Reply: 91.7% (inactive)

Ask: Consider the compound shown here: O=C(c1ccccc1)C(CN1CCCCC1)c1ccccc1 (stereo unspecified) What is its recorded growth?
Reply: 0.432% (active)

Ask: Reported growth, compound `O=C(/C=C/c1c(-c2ccccc2)[nH]c2ccccc12)S(=O)(=O)c1ccccc1` : ____
Reply: 43.3% (inactive)

Ask: # growth lookup, item CC1CN(/N=C/c2ccc([N+](=O)[O-])o2)C(=N)O1 (stereo unspecified)
Reply: 84.8% (inactive)

Ask: Sample `O=C1NC(=O)/C(=C/c2ccc(Cl)cc2Cl)N1` — what was its growth?
Reply: 95.3% (inactive)

Ask: // query growth value for entry `O=C1/C(=C/c2cccc(Cl)c2)CCc2ccccc21`
Reply: 50.5% (inactive)

Ask: Would you mind telling me what growth value was observed for O=CN1N=C(c2ccc(Nc3ccnc4cc(Cl)ccc34)cc2)CC1c1ccc(Cl)cc1 (stereo unspecified) ?
Reply: 18.4% (inactive)

Ask: Endpoint output: growth of CC(C)=CCCC(C)c1ccc(C)c2c1OCN(CC1CCNCC1)C2 (stereo unspecified) . Value?
Reply: 36.6% (inactive)

Ask: Value lookup for growth; key = `COc1cccc2c1C(=O)c1c(O)c3c(c(O)c1C2=O)C[C@@](O)(C(C)=O)C[C@@H]3O[C@H]1C[C@H](N)[C@H](O)[C@H](C)O1`
Reply: 0% (active)

Ask: Name the reported growth value associated with the compound `O=C(c1ccccc1)c1ccc(Oc2ccc([N+](=O)[O-])cc2[N+](=O)[O-])cc1`
Reply: 15.6% (inactive)

Ask: Consider the compound Cc1ccc(C2=NNC(c3sc(Cl)nc3Cl)C2)cc1 (stereo unspecified) and give its measured growth.
Reply: 65.9% (inactive)

Ask: Fill in: growth of `CC(C)N(Cc1ccccc1)c1c(S)ssc1=S` is ___
Reply: 3.04% (active)

Ask: What growth value was documented for this compound, CC(=O)OC1Oc2cc(C)c(C)cc2-c2oc(=O)c(-c3ccccc3)cc21 (stereo unspecified) ?
Reply: 10.9% (inactive)

Ask: I am curious: what growth value has been reported for COC(=O)C1=CCC(n2cnc3c(N)ncnc32)O1 (stereo unspecified) ?
Reply: 120% (inactive)

Ask: # input compound: `NS(=O)(=O)c1ccc(-n2ncc3c(NC4CCCCC4)ncnc32)cc1` ; wanted: its growth
Reply: 116% (inactive)

Ask: // lookup growth for OC(c1ccccc1)C(NCc1ccccc1)c1ccccc1 (stereo unspecified)
Reply: 97.1% (inactive)

Ask: Recorded growth of `O=Cc1ncc(-c2ccc(C(F)(F)F)cc2)c(NC2CCCCCC2)n1` , please.
Reply: -86.3% [100 µM] (active)

Ask: I would be grateful if you could share the reported growth for `CCOc1cc(/C=C/C(=O)CC(=O)/C=C/c2ccc(OC(=O)CNCCN(CC)CC)c(OCC)c2)ccc1OC(=O)CNCCN(CC)CC` .
Reply: 7.36% (active)

Ask: # input compound: `CCN(CC)CCCCCCCNc1c2ccc(Cl)cc2nc2ccc(OC)cc12` ; wanted: its growth
Reply: -32.4% (active)

Ask: Would you mind telling me what growth value was observed for `O=c1sc2ncnc3ncn1c32` ?
Reply: 22.4% (inactive)

Data credit: PubChem BioAssay (NCI)
